TARGET ENTITY: human GLP-1 receptor (human, UniProt P43220 24-463)
Sequence (P43220 24-463): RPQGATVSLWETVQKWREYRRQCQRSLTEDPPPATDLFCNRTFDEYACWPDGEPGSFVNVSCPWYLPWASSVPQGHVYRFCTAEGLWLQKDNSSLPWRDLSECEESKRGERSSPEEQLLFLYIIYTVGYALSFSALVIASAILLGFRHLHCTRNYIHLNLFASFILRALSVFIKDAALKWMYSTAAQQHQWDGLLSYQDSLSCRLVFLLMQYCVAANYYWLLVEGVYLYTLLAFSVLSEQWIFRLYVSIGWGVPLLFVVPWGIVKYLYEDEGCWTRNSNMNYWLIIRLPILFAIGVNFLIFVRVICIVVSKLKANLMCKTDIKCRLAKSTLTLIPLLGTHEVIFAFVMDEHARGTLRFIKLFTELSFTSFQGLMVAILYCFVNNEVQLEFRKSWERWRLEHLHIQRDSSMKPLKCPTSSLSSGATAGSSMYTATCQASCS
TEST DESCRIPTION: cell-based or functional assay
Starred links: 1 amine or outer side, 2 acyl side, 3 side chain; linkers in the order of their positions; H or OH if unused. Non-standard residues stand in square brackets, D forms with d. No end group written: not given here. *: point of attachment. NMe2F‑APPA = N-methyl-2-amino-5-(2-fluorophenyl)pentanoic acid, CN([C@@H](CCCc1ccccc1F)C(=O)[*:2])[*:1]; Bip(2'-Et-4'-OMe) = CCc1cc(OC)ccc1-c1ccc(C[C@H](N)C(=O)O)cc1; αMePhe(2-F) = C[C@](N)(Cc1ccccc1F)C(=O)O; NMeBip(OMe) = N-methylated Bip(OMe); hhPhe = N[C@@H](CCCc1ccccc1)C(=O)O; NMeD = CN[C@@H](CC(=O)O)C(=O)O; aThr = C[C@H](O)[C@H](N)C(=O)O; NMeAPPA = not defined here; CNB = not defined here; Aib = CC(C)(N)C(=O)O; Moc = COC(=O)*
Would you mind telling me the reported cAMP release, % activity, 1 µM of each entry?
Report the figure along with its unit, number first.

Prompt line: cAMP release, % activity, 1 µM for Moc-H[Aib]QGT[αMePhe(2-F)]TSD[Bip(2'-Et-4'-OMe)][hhPhe] (also: reduced (CH2) bonds between 9-10 and 10-11) [Seq. ID. No. 194: CH3OCO-H-Aib-QGT-(α-Me-2F-Phe)-TSD-(CH2)-Bip(OMe)-(CH2)-(APPA)] ?
Response line: 94%

Prompt line: Sample H[Aib][CNB]G[aThr][αMePhe(2-F)][aThr]S[NMeD][NMeBip(OMe)][NMe2F‑APPA] (reading uncertain) — what was its cAMP release, % activity, 1 µM?
Response line: 99%

Prompt line: // returns reported cAMP release, % activity, 1 µM for input H[Aib][CNB]G[aThr][αMePhe(2-F)][aThr]S[NMeD][NMeBip(OMe)][NMeAPPA] (reading uncertain) [Seq. ID. No. 154: H-Aib-(CNB)-G-T(allo)-(α-Me-2F-Phe)-T(allo)-S-(NMe)D-((NMe)Bip(OMe))-((NMe)(APPA))]
Response line: 99%

Prompt line: What does the data say about its cAMP release, % activity, 1 µM? Entry: Ac-H[Aib]QG[aThr][αMePhe(2-F)][aThr]SD[Bip(2'-Et-4'-OMe)][hhPhe] (also: reduced (CH2) bond between 10 and 11) [Seq. ID. No. 185: CH3CO-H-Aib-QG-T(allo)-(α-Me-2F-Phe)-T(allo)-SD-Bip(OMe)-(CH2)-(APPA)]
Response line: 99%
